Biological target: human PPARδ-LBD (Homo sapiens, UniProt Q03181)
Construct: PPARδ-LBD (AAs 170–441); made in house
Sequence (Q03181 170-441): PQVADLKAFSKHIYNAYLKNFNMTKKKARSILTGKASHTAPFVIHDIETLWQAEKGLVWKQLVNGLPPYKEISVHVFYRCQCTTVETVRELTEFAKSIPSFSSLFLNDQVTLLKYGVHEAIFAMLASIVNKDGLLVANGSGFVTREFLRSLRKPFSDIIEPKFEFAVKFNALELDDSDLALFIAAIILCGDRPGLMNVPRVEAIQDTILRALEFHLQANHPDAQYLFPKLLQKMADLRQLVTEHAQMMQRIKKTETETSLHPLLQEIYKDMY
Experiment: TR-FRET coactivator recruitment assay, PPARδ-LBD
Assay type: biochemical
Settings: read-out: PPARδ CBP % of GW501516 max response
Listed next: entries and their corresponding Emax.
Your answer is read as %, so omit the unit and give the number.

Worked examples, 2 compounds total:
O=C(O)CCCc1cc2cc(Cl)ccc2n1S(=O)(=O)c1ccc2ncsc2c1	101
CC(C)(Oc1ccc(CCNC(=O)c2ccc(Cl)cc2)cc1)C(=O)O [Bezafibrate, bezafibrate]	64.6

// moving on: another record for Emax
Ask: Record lookup: for human PPARδ-LBD (Homo sapiens, UniProt Q03181), what Emax belongs to CCc1ccc(CCOc2ccc(CC3SC(=O)NC3=O)cc2)nc1 (stereo not drawn) ?
Reply: 2.47
